Values from the Immune Epitope Database (IEDB)

target-entity: HLA-A*26:01
assay-explanation: IEDB peptide-MHC binding, purified MHC/competitive/fluorescence; filed as Kd, often an IC50 or EC50 that approximates it; bounds were set here for any values at or beyond the usual limits of such assays
run-parameters: source organism: Entamoeba dispar SAW760
property-measured: Kd

Query :: Respond only with Kd recorded for KDGTLFYCY
Result :: ≥ 20 µM

---

target-entity: HLA-A*02:01
assay-explanation: IEDB peptide-MHC binding, purified MHC/competitive/radioactivity; filed as Kd, often an IC50 or EC50 that approximates it; bounds were set here for any values at or beyond the usual limits of such assays
run-parameters: source organism: Lassa virus Josiah
property-measured: Kd (µM)
Quick note: give the figure in µM, leave out the unit.

Query :: Recall the reported Kd of AVWDQYKDL on HLA-A*02:01 and write it down.
Result :: 12.5
